# measurement_target: ZNF721 full-length (Homo sapiens, UniProt Q8TF20-2 1-923)
# Sequence (Q8TF20 other isoform, or with tags, fused parts or gaps): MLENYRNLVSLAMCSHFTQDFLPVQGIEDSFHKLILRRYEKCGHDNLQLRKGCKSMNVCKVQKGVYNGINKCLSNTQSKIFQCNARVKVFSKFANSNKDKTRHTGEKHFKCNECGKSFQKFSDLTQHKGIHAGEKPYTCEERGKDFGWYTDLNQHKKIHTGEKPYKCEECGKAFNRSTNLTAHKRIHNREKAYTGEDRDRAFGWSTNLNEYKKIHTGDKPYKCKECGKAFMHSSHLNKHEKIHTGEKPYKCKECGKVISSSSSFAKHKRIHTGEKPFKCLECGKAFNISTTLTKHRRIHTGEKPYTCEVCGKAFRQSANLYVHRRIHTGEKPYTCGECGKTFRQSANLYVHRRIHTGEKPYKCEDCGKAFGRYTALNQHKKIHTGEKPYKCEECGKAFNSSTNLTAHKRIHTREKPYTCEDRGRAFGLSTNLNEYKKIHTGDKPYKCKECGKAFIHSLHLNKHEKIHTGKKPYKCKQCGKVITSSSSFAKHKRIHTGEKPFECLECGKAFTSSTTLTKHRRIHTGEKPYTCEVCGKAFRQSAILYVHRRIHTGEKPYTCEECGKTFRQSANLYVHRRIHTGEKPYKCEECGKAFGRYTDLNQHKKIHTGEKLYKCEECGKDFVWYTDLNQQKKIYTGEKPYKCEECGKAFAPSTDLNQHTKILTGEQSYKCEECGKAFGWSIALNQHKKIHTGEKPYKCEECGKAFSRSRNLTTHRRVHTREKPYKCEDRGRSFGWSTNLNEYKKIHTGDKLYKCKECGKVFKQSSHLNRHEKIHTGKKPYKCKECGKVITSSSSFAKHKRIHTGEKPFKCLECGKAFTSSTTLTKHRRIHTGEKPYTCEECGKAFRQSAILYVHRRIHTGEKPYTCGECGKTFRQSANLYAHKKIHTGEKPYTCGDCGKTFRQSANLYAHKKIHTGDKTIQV
# test_summary: HT-SELEX; 20 mM HEPES pH 7, 140 mM KCl, 5 mM NaCl, 1 mM K2HPO4, 2 mM MgSO4, 100 uM EGTA, ZnSO4, 0.1% Tween20; room temperature, 1 h; high values mean tight binding
# condition_label: protein: ivt; tags: eGFP (N-terminal); dsDNA, one strand shown
A collection of sequences and their measured binding signal
I'd appreciate it if you wrote the number followed by its unit.

Example results:
{"columns": ["construct_sequence", "test_value"],
 "data": [
  ["GCCCCACCGC", "0.104 relative 10-mer count"],
  ["CACACCCCCC", "0.146 relative 10-mer count"]
]}

Using known records, supply binding signal for ACCCACCCAC
0.196 relative 10-mer count

Using known records, supply binding signal for CCAACCCACC
0.171 relative 10-mer count

Using known records, supply binding signal for CCCCCGCCCC
0.312 relative 10-mer count

Using known records, supply binding signal for AAAGCTATAC
0.183 relative 10-mer count

Using known records, supply binding signal for CAGCGTTACC
0.138 relative 10-mer count

###

# measurement_target: ZNF721 full-length (Homo sapiens, UniProt Q8TF20-2 1-923)
# test_summary: HT-SELEX; 20 mM HEPES pH 7, 140 mM KCl, 5 mM NaCl, 1 mM K2HPO4, 2 mM MgSO4, 100 uM EGTA, ZnSO4, 0.1% Tween20; room temperature, 1 h; high values mean tight binding
# condition_label: protein: ivt; tags: eGFP (N-terminal); dsDNA, one strand shown
measured_property: binding signal

{"columns": ["construct_sequence", "measurement_target", "binding signal"],
 "data": [
  ["AACCCACCCC", "ZNF721 full-length (Homo sapiens, UniProt Q8TF20-2 1-923)", "0.143 relative 10-mer count"],
  ["ACCCCATCCC", "ZNF721 full-length (Homo sapiens, UniProt Q8TF20-2 1-923)", "0.102 relative 10-mer count"],
  ["GGGTGGGGCA", "ZNF721 full-length (Homo sapiens, UniProt Q8TF20-2 1-923)", "0.104 relative 10-mer count"],
  ["AAAAAACAGA", "ZNF721 full-length (Homo sapiens, UniProt Q8TF20-2 1-923)", "0.261 relative 10-mer count"],
  ["CCCCCGCACC", "ZNF721 full-length (Homo sapiens, UniProt Q8TF20-2 1-923)", "0.146 relative 10-mer count"]
]}

Under ZNF721 full-length (Homo sapiens, UniProt Q8TF20-2 1-923): report binding signal of ACGCTTCATA .
0.122 relative 10-mer count

Under ZNF721 full-length (Homo sapiens, UniProt Q8TF20-2 1-923): report binding signal of AAAAAAAAAA .
0.186 relative 10-mer count

Under ZNF721 full-length (Homo sapiens, UniProt Q8TF20-2 1-923): report binding signal of CTCCCCCCTC .
0.108 relative 10-mer count

Under ZNF721 full-length (Homo sapiens, UniProt Q8TF20-2 1-923): report binding signal of CCCTCCACCA .
0.109 relative 10-mer count

Under ZNF721 full-length (Homo sapiens, UniProt Q8TF20-2 1-923): report binding signal of AAAAAGCATC .
0.123 relative 10-mer count

###

# measurement_target: ZNF721 DBD1 (Homo sapiens, UniProt Q8TF20-2 29-461)
# Sequence (Q8TF20 17-449): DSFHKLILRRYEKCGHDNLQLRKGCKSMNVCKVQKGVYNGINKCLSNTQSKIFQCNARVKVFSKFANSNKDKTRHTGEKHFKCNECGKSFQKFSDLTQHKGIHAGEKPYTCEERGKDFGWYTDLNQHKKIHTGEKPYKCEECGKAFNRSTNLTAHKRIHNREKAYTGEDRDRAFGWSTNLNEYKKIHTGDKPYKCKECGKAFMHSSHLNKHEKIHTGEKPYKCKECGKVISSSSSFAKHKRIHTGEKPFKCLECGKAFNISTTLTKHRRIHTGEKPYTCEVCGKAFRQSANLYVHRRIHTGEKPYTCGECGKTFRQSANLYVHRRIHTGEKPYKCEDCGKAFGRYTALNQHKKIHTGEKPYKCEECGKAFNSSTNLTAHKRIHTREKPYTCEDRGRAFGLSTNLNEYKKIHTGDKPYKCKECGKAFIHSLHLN
# test_summary: HT-SELEX; 20 mM HEPES pH 7, 140 mM KCl, 5 mM NaCl, 1 mM K2HPO4, 2 mM MgSO4, 100 uM EGTA, ZnSO4, 0.1% Tween20; room temperature, 1 h; high values mean tight binding
# condition_label: protein: ivt; tags: eGFP (N-terminal); dsDNA, one strand shown
measured_property: binding signal
I'd appreciate it if you wrote the number followed by its unit.

Example results:
{"columns": ["construct_sequence", "test_value"],
 "data": [
  ["CCCACCCACG", "0.00472 relative 10-mer count"],
  ["CGAAAAAACA", "0.0022 relative 10-mer count"],
  ["CCACCCGCCA", "0.00445 relative 10-mer count"]
]}

Below: the item to evaluate.
Under ZNF721 DBD1 (Homo sapiens, UniProt Q8TF20-2 29-461): report binding signal of AAAAAAGCGT .
0.0607 relative 10-mer count

###

# measurement_target: ZNF721 DBD2 (Homo sapiens, UniProt Q8TF20-2 395-923)
# Sequence (Q8TF20 383-911): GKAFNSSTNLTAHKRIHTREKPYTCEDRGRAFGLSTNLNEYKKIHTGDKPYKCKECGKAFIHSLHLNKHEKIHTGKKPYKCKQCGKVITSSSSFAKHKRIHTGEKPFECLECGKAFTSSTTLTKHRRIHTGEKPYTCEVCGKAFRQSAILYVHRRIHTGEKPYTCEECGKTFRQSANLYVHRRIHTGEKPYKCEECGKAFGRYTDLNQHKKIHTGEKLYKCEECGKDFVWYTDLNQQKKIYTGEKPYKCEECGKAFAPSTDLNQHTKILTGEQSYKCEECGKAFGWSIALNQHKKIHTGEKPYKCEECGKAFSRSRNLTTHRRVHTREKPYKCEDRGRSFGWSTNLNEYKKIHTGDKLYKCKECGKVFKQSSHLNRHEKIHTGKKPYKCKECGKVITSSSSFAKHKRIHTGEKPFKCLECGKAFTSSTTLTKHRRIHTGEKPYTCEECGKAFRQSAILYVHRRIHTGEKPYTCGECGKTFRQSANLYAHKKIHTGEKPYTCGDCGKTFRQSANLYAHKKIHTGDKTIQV
# test_summary: HT-SELEX; 20 mM HEPES pH 7, 140 mM KCl, 5 mM NaCl, 1 mM K2HPO4, 2 mM MgSO4, 100 uM EGTA, ZnSO4, 0.1% Tween20; room temperature, 1 h; high values mean tight binding
# condition_label: protein: ivt; tags: eGFP (N-terminal); dsDNA, one strand shown
measured_property: binding signal (relative 10-mer count)
# unit: relative 10-mer count | format: bare number

Example results:
{"columns": ["construct_sequence", "measurement_target", "binding signal (relative 10-mer count)"],
 "data": [
  ["CCACCCCCCG", "ZNF721 DBD2 (Homo sapiens, UniProt Q8TF20-2 395-923)", 0.0024],
  ["AAAGAAGCTA", "ZNF721 DBD2 (Homo sapiens, UniProt Q8TF20-2 395-923)", 0.00132],
  ["CGCCACCCCC", "ZNF721 DBD2 (Homo sapiens, UniProt Q8TF20-2 395-923)", 0.0024],
  ["CAAAAACAGC", "ZNF721 DBD2 (Homo sapiens, UniProt Q8TF20-2 395-923)", 0.251],
  ["AAAGCAGTAC", "ZNF721 DBD2 (Homo sapiens, UniProt Q8TF20-2 395-923)", 0.0905],
  ["AGACACTGCT", "ZNF721 DBD2 (Homo sapiens, UniProt Q8TF20-2 395-923)", 0.127],
  ["CCTTCCCCCC", "ZNF721 DBD2 (Homo sapiens, UniProt Q8TF20-2 395-923)", 0.00264],
  ["CCCGCCCCTC", "ZNF721 DBD2 (Homo sapiens, UniProt Q8TF20-2 395-923)", 0.00144],
  ["CCCCTCTCCC", "ZNF721 DBD2 (Homo sapiens, UniProt Q8TF20-2 395-923)", 0.00204],
  ["AAAGCTATCC", "ZNF721 DBD2 (Homo sapiens, UniProt Q8TF20-2 395-923)", 0.00156]
]}

Under ZNF721 DBD2 (Homo sapiens, UniProt Q8TF20-2 395-923): report binding signal of CCCTCGCCCC .
0.00336

Under ZNF721 DBD2 (Homo sapiens, UniProt Q8TF20-2 395-923): report binding signal of ACAAAGCAGC .
0.238

###

A collection of sequences and their measured binding signal
# measurement_target: ZNF721 DBD2 (Homo sapiens, UniProt Q8TF20-2 395-923)
# test_summary: HT-SELEX; 20 mM HEPES pH 7, 140 mM KCl, 5 mM NaCl, 1 mM K2HPO4, 2 mM MgSO4, 100 uM EGTA, ZnSO4, 0.1% Tween20; room temperature, 1 h; high values mean tight binding
# condition_label: protein: ivt; tags: eGFP (N-terminal); dsDNA, one strand shown

Example results:
{"columns": ["construct_sequence", "binding signal"],
 "data": [
  ["CCACCCAACC", "0.00551 relative 10-mer count"],
  ["CACGCCCACC", "0.00947 relative 10-mer count"],
  ["CACCCACCCG", "0.00264 relative 10-mer count"]
]}

Using known records, supply binding signal for ACAGCATCCC
0.088 relative 10-mer count

Using known records, supply binding signal for CCTCCACCAC
0.00923 relative 10-mer count

Using known records, supply binding signal for AAAAGCGTAC
0.0176 relative 10-mer count

Using known records, supply binding signal for AAAACAGTGC
0.195 relative 10-mer count

Using known records, supply binding signal for CCCCCCCCCA
0.00312 relative 10-mer count

Using known records, supply binding signal for CAGCATCTCC
0.214 relative 10-mer count

Using known records, supply binding signal for AGGTGGGGTG
0.00288 relative 10-mer count

Using known records, supply binding signal for CTCCCCTCCC
0.00455 relative 10-mer count

Using known records, supply binding signal for CCCCCCATCC
0.00419 relative 10-mer count

Using known records, supply binding signal for ACAGCATGAC
0.295 relative 10-mer count

Using known records, supply binding signal for CAGGGTGGGG
0.00384 relative 10-mer count

Using known records, supply binding signal for CCACCCACCC
0.00587 relative 10-mer count

Using known records, supply binding signal for AAGCTGCACC
0.0024 relative 10-mer count

Using known records, supply binding signal for GTGGGGTGGA
0.00539 relative 10-mer count

Using known records, supply binding signal for AAAAACAGAA
0.0718 relative 10-mer count

// data source = paper PMC13541613
